B1: Steroid hormone receptor ERR2, residues 100 to 176; numbered along this chain, O95718 (parent)
chain: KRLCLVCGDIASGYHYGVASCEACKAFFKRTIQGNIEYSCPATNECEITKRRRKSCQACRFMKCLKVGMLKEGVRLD

# Variants of: B1
# Assay details: abundance fitness (aPCA) (normalised: wild type 0, dead -1); higher = more abundant; growth selection in yeast, the domain comes from the species named
# Experimental setup: Homo sapiens
So basically: abundance fitness at -0.1 or higher? That is T. Lower than -0.1? That is F.

Q33H
F
D9V
F
V6D
F
Q33D
T
A23Y
F
K25T
T
F28Y
F
I10F
T

Check the entry `R30F` : does abundance fitness equal or exceed -0.1?
F

Check the entry `A23L` : does abundance fitness equal or exceed -0.1?
F

Check the entry `Q33N` : does abundance fitness equal or exceed -0.1?
F

Check the entry `L5N` : does abundance fitness equal or exceed -0.1?
F

Check the entry `C46Q` : does abundance fitness equal or exceed -0.1?
F

Check the entry `C40K` : does abundance fitness equal or exceed -0.1?
F

Check the entry `I10L` : does abundance fitness equal or exceed -0.1?
F

Check the entry `E45L` : does abundance fitness equal or exceed -0.1?
F

Check the entry `S55C` : does abundance fitness equal or exceed -0.1?
T

Check the entry `F27I` : does abundance fitness equal or exceed -0.1?
F

Check the entry `I10P` : does abundance fitness equal or exceed -0.1?
T

Check the entry `G13L` : does abundance fitness equal or exceed -0.1?
F

Data credit: the Human Domainome abundance scans (Beltran et al. 2025)
